Numbers sourced from paper PMC9410265.

MEASURED TARGET: Ggc1p (yeast mitochondrial GDP/GTP carrier) (Saccharomyces cerevisiae, UniProt P38988)
Construct: E. coli BL21(DE3) inclusion bodies, sarkosyl-solubilized, reconstituted in liposomes; calculated 33,215 Da with initiator Met
Sequence (P38988 whole entry): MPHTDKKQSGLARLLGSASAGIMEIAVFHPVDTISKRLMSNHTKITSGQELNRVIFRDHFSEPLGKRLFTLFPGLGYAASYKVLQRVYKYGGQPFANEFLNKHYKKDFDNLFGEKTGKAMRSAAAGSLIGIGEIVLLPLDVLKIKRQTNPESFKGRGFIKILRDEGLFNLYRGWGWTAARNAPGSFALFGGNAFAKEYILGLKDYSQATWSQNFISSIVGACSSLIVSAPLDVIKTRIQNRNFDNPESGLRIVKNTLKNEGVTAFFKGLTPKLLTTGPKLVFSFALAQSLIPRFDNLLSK
ASSAY METHOD TEXT: radiolabelled GTP uptake into proteoliposomes, activation by internal citrate
RUN PARAMETERS: activator (trans-activation of GTP uniport), not transported; allosteric, site distinct from GTP site; 10 μM external [8-3H]GTP; pH 7.0, 25 °C
REPORTED METRIC: EC50 (µM)

>>> obs_value("O=C(O)CC(O)(CC(=O)O)C(=O)O [citrate]")
510
